Molecular target: D(2) dopamine receptor (Rattus norvegicus, UniProt P61169)
Sequence (P61169 whole entry): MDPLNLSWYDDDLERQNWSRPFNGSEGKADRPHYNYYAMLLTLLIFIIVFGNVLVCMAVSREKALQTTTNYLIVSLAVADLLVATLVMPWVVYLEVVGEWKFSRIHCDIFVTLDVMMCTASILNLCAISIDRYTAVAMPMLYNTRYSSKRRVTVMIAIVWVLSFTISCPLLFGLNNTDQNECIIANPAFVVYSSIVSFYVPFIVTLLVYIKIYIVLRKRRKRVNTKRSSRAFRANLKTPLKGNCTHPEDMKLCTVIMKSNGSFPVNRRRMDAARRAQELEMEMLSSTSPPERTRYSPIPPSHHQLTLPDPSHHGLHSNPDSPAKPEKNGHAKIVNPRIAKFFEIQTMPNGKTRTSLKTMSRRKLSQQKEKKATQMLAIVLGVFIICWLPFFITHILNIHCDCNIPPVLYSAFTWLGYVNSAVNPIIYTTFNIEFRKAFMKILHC
Assay: Inhibitory constant against binding of [125I]- IBZM to rat striatal membrane
Set-up: species or system Striatum
MEASURE NAME: pKi
Interpret pKi as the negative base-10 log of the concentration measured in mol/L.

Below, 3 molecules whose answers are already recorded.
MOLECULE: CCN1CCC[C@@H]1CNC(=O)c1c(OC)ccc(I)c1O
EXPERIMENTAL TARGET: D(2) dopamine receptor (Rattus norvegicus, UniProt P61169)
pKi: 7.52
//
MOLECULE: CCN1CCC[C@H]1CNC(=O)c1c(OC)ccc(I)c1O [IOLOPRIDE]
EXPERIMENTAL TARGET: D(2) dopamine receptor (Rattus norvegicus, UniProt P61169)
pKi: 9.20
//
MOLECULE: CCN1CCC[C@H]1CNC(=O)c1c(O)cccc1OC
EXPERIMENTAL TARGET: D(2) dopamine receptor (Rattus norvegicus, UniProt P61169)
pKi: 7.51

// query pKi value for entry O=C(c1ccc(F)cc1)C1CCN(CCn2c(=O)[nH]c3ccccc3c2=O)CC1
6.44
